biological target: Leukocyte elastase (Homo sapiens); experiment: Inhibition constant (Ki) against human leukocyte elastase.
Recorded measurements of Ki, one per entry

# COMPOUND, SCALE_UNIT, Ki
rows = [
    ("CC(NC(=O)[C@H](C)NC(=O)c1cccc2c1Oc1c(C(=O)NC(C)C(=O)N[C@@H](C)C(=O)O)cccc1C2(C)C)C(=O)O (single isomer, unassigned)", "µM", 248),
    ("CC(NC(=O)[C@H](C)NC(=O)c1cccc2c1Oc1c(C(=O)NC(C(=O)O)C(C)C)cccc1C2(C)C)C(=O)O (single isomer, unassigned)", "µM", 86),
    ("CC(C)C(NC(=O)c1cccc2c1Oc1c(C(=O)N[C@H](C(=O)O)C(C)C)cccc1C2(C)C)C(=O)O (single isomer, unassigned)", "µM", 515),
]

---

biological target: Trypsin (Sus scrofa, UniProt P00761)
Sequence (P00761 whole entry): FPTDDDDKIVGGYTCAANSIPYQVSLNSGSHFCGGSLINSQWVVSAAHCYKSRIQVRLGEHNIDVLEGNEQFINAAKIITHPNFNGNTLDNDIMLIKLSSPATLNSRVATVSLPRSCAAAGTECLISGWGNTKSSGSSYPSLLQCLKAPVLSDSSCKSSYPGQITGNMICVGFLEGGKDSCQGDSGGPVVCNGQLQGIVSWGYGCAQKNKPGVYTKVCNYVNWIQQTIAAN
pKi: −log10 of the molar value.

# ITEM_SMILES, pKi
measured = [
    ("O=C1C=CC(=O)N1c1ccccc1", "~3.10"),
]

---

target: Leukocyte elastase (Homo sapiens); experiment: Inhibition constant (Ki) when mixed with p-nitroanilide against human leukocyte elastase for the conversion of water-soluble compound to fluorescent oil-soluble compound

# COMPOUND, SCALE_UNIT, Ki
data = [
    ("CC(NC(=O)[C@H](C)NC(=O)c1cccc2c1Oc1c(C(=O)NC(C(=O)O)C(C)C)cccc1C2(C)C)C(=O)O (single isomer, unassigned)", "nM", 128),
]
